B1: library; a variant is named by its letters at N, in order (parent)
chain: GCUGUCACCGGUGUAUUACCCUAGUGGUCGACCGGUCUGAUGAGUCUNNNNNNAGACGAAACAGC

- Variants of: B1
- testSummary: normalized RNA/DNA level with ligand (relative to sTRSVctl = 100) (log10 (% of sTRSVctl)); ligand: hypoxanthine (xanthine aptamer); higher = less ribozyme self-cleavage, higher mRNA level
- runParameters: ligand concentration (+) RNA-Seq: 5 mM, HEK293T, reporter: mCherry (pCS4076), ligand present: yes
propertyMeasured: normalized RNA/DNA level with ligand (log10)
Give bare numbers.

Sample answers from the record:
>>> resultnumber("AAGGCA")
1.94
>>> resultnumber("CGAGAA")
1.91
>>> resultnumber("CGCGGA")
2

Please give normalized RNA/DNA level with ligand (log10) for each item listed below.
1. UACCUG
2. CCUUAC
3. GCACAU
4. UGGUGU

a:
1: 1.93; 2: 1.94; 3: 1.96; 4: 1.95

Please give normalized RNA/DNA level with ligand (log10) for each item listed below.
1. GGUCUU
2. CAAUCG
3. UGACCA
4. UGCCGA
5. UGUCGA
6. AUAGGC

a:
1.93
1.98
1.93
1.94
1.9
1.91

Please give normalized RNA/DNA level with ligand (log10) for each item listed below.
1. CCAUCC
2. CUGUUU
3. AUCUCU
4. CCGAUC
5. UGUUCG
6. CAACCU

a:
2
2.02
1.99
1.99
1.94
1.98
